Data origin: patent US20240174662A1

Biological target: SIK2 (Homo sapiens (Human), UniProt Q9H0K1)
Sequence (Q9H0K1 whole entry, species assumed): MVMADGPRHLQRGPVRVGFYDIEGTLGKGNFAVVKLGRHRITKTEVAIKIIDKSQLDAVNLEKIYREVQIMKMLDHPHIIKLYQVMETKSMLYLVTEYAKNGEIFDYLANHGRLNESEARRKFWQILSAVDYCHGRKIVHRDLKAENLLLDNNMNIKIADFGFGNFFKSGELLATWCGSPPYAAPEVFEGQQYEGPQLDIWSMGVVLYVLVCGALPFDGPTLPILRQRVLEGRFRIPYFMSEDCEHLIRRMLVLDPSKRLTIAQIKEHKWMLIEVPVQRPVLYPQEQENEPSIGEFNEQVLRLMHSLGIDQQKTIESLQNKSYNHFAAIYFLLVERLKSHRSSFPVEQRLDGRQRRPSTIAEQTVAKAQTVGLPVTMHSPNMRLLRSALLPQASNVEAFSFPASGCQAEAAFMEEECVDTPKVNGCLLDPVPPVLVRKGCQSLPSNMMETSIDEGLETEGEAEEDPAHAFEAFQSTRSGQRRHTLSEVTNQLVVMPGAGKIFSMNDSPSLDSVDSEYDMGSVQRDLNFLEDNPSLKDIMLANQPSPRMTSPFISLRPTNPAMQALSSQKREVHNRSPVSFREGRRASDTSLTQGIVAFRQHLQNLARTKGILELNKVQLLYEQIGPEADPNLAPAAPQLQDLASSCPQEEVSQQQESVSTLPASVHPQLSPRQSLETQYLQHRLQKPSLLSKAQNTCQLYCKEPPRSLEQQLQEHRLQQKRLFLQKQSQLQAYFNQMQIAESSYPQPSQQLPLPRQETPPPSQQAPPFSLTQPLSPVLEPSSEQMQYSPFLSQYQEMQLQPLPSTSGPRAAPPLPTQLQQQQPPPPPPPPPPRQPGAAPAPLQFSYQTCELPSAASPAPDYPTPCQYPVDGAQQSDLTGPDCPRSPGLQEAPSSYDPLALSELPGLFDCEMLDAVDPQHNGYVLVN
Assay: SIK2 Enzymatic Assay Version 2 (High ATP)
Assay type: biochemical
Conditions: 3 mM ATP and 200 μM HDAC5tide final, ADP-Glo Max luminescence
Below, each of the molecules is paired with its reported pIC50 value.
pIC50 is a log-scale quantity: -log10 of the concentration expressed in molar.

Name the reported pIC50 value associated with the molecule "Cc1cc(Nc2cc3cc(-c4c(OC[C@@H]5CCN5C)cnn4C)ccn3n2)nc(C(F)(F)F)n1"
7.82

Name the reported pIC50 value associated with the molecule Cc1cc(Nc2cc3cc(-c4c(OC[C@@H]5CC6(CCCC6)CO5)cnn4C)ccn3n2)nc(C)n1 (single isomer, unassigned)
7.13

Name the reported pIC50 value associated with the molecule "Cn1ncc(O[C@H]2CC[C@@H](O)CC2)c1-c1ccn2nc(NC(=O)C3CC3)cc2c1"
6.92

Name the reported pIC50 value associated with the molecule Cc1cc(Nc2cc3cc(-c4c(OC[C@@H](O)C56CC(C5)C6)cnn4C)ccn3n2)nc(C)n1 (stereo in doubt)
7.44
